test system: SNB-19; assay: NCI tumour cell line growth inhibition, 48 h
Activity calls are given as the source filed them. Rule as the data show it: active = GI50 up to about 1.1 µM and inactive = higher.
MEASURED PARAMETER: GI50

INSERT INTO results (compound, reading) VALUES
  ('COc1ccc(-c2cc(-c3ccc(Nc4ccnc5cc(Cl)ccc45)cc3)[nH]c(=O)c2C#N)cc1', '77.4 µM (inactive)'),
  ('COc1cc2oc3cc(=O)cc4oc(-c5ccccc5)cc(c2c2c1CCC(c1ccccc1)O2)c43 (stereo unspecified)', '63 µM (inactive)'),
  ('N#CC(c1ccccc1)(c1ccccc1)[C@@H](c1ccccc1)[C@H](Cc1ccccc1)NS(=O)(=O)c1ccccc1', '> 100 µM (inactive)');

GET /values?item= CCOC(=O)c1ccc(/N=N\c2ccc(N(CCC#N)CCC#N)cc2C)cc1 &system= SNB-19 returns GI50: > 100 µM (inactive)

Simply: CCC(=O)NC(Nc1ccccc1F)(C(F)(F)F)C(F)(F)F , SNB-19, GI50 = > 100 µM (inactive)

Form field, GI50 with SNB-19, item CN(C)CCN1N=Nc2cccc3cccc1c23 : > 100 µM (inactive)

The measured GI50 that O=[N+]([O-])c1cc2c([N+](=O)[O-])cccc2o1 showed for SNB-19 is 19.2 µM (inactive)

// GI50 (SNB-19) for C=C1C(=O)O[C@H]2C3C(=C(C)CC[C@@H]12)C(=O)[C@@H]1OC31C (stereo partly specified) = 15.8 µM (inactive)

###

system: OVCAR-8; assay: NCI tumour cell line growth inhibition, 48 h
Active and inactive are the calls of the source. No stated cut-off is given here; in the data, active = GI50 up to about 1.1 µM and inactive = higher.
Overview of reported GI50 across a group of compounds:

Consider the following illustrative entries.
INSERT INTO assay_data (compound, measured_parameter, reading) VALUES
  ('C[C@H]1C(=O)C2=C[C@H]1CCC(=O)[C@]1(C)CCCC(C)(C)[C@H]1C[C@H]2O', 'GI50', '17.5 µM (inactive)'),
  ('CC(=O)CSc1c(-c2ccccc2)c(=O)n(-c2ccccc2)c(=S)n1-c1ccccc1', 'GI50', '> 100 µM (inactive)'),
  ('CSc1ccc(/C=C2\N=C(c3ccccc3)N(/N=C3\C(=O)Nc4ccccc43)C2=O)cc1', 'GI50', '88.3 µM (inactive)'),
  ('O=C1C=C(C2=CC(=O)C(=O)c3ccccc32)c2ccccc2C1=O', 'GI50', '20.2 µM (inactive)'),
  ('Cc1ccc([N+](=O)[O-])cc1NC(=O)C(=O)Cc1occc(=O)c1O', 'GI50', '> 100 µM (inactive)'),
  ('CC(C)(c1ccccc1)c1ccc(OC#N)cc1', 'GI50', '> 100 µM (inactive)'),
  ('CC1(C)[C@H]2CC[C@@]13C(=O)N1C(=O)O[C@@H]([C@H]1Cl)C(Cl)(COCc1ccccc1)C(=O)OCCO[C@H]3C2 (stereo partly specified)', 'GI50', '> 100 µM (inactive)'),
  ('O=C1C2=C(CC3C(C2)C3(Br)Br)C(=O)C2=C1CC1C(C2)C1(Br)Br (stereo unspecified)', 'GI50', '> 100 µM (inactive)');

Just so you know, measured GI50 for COc1ccc([C@@H]2C[C@@H]3C(=O)OC(=O)[C@@H]3c3c2c2ccccc2n3C)cc1 came out at > 100 µM (inactive)

response.value for CCCCCc1c(CCCC)c(O)nc2nc(NC(=O)CCCC)ccc12 (field: GI50) = > 100 µM (inactive)

// recorded GI50 for COc1cc(OC)c(NC2=NCCO2)cc1Cl : 83 µM (inactive)

For reference, reported GI50 for Nc1ccn(C2CCC(CO)O2)c(=S)n1 (stereo unspecified) stands at > 100 µM (inactive)

Item: COC(=O)C(C(=O)OC)C1CCCC(=O)C1 (stereo unspecified) | GI50: > 100 µM (inactive)

Record COc1cc2c(cc1OC)C1C[C@]3(CCN1CC2)C(=O)N(c1ccccc1)C(=O)N3C(C)=O (stereo partly specified) , field GI50: > 200 µM (inactive)

GI50 reported for this compound COc1ccc(-c2cc(-c3ccc(O)cc3O)c(C#N)c(=O)[nH]2)cc1 : 31.9 µM (inactive)

Value of GI50 reported for the compound NS(=O)(=O)c1ccc(NC(=O)Nc2cccc3ccccc23)cc1 is 20.9 µM (inactive)

// field: GI50; key: O=C1Cc2c([nH]c3c(Cl)cccc23)-c2ccccc2N1 ; value = > 100 µM (inactive)

Sure, the documented GI50 for CCOC(=O)c1sc2ncnc(N)c2c1C is 35 µM (inactive)

Record summary for CC(Oc1ccc(OCC2CCCCC2)cc1)C(=O)N(CCO)CCO (stereo unspecified) : reported GI50 = > 100 µM (inactive)

# GI50 (compound: Cc1ccc(CC2(OCCN(C)C)CCC(C(C)(C)C)CC2)cc1 (stereo unspecified) ) is 4.62 µM (inactive)

GI50 measured on Cc1cc(N(CCC#N)CCC#N)ccc1/C=C1/N=C(c2ccccc2)N(N)C1=O = > 100 µM (inactive)
